- experimental-target: PAC1 receptor (Homo sapiens, UniProt P41586)
- assay-name: PACAP-induced calcium flux in HEK PAC1R stable cell lines
- Format: cell-based
- Parameters: expressed in transfected cells
- test-settings: 20 nM PACAP, FIG. 3A, read-out: calculated IC50, attenuation of PACAP-induced calcium flux
recorded-metric: IC50 (µM)
Enter your answer as a number in µM; do not include the unit.

*Q* Report value only: IC50, PAC1 receptor (Homo sapiens, UniProt P41586), O=C(Nc1ccc(S(=O)(=O)Nc2cc(F)cc(F)c2)cc1)c1cc2ccccc2[nH]1
*A* 8.5

---

Please respond with reported IC50 for every item in the list.
- experimental-target: PAC1 receptor (Homo sapiens, UniProt P41586)
- Sequence (P41586 21-468): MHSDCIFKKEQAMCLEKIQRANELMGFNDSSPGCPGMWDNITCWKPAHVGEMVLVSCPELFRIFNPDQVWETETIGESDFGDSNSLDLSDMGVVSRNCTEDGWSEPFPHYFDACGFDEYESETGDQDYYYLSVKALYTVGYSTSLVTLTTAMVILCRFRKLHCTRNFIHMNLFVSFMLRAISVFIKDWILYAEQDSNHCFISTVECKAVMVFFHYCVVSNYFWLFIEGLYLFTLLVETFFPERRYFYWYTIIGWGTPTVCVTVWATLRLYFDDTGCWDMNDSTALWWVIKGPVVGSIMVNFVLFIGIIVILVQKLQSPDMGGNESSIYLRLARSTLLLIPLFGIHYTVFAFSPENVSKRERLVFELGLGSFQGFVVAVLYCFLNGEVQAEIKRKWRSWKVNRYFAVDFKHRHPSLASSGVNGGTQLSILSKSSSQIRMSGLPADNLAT
- assay-name: Inhibition of 20 nM PACAP-stimulated ERK activation in stable PAC1 receptor HEK cells (Western blot)
- Assay type: cell-based
- Design: expressed in transfected cells
- test-settings: 20 nM PACAP; PAC1 receptor HEK cells; FIG. 2; read-out: apparent IC50, inhibition of PACAP-stimulated ERK activation

*Q* Report value only: IC50, PAC1 receptor (Homo sapiens, UniProt P41586), O=C(N/N=C/c1cccc2c1ccn2Cc1cc(F)cc(F)c1)c1ccc(O)c(Cl)c1
*A* 5 to 8 µM

*Q* Report value only: IC50, PAC1 receptor (Homo sapiens, UniProt P41586), O=C(Nc1ccc(S(=O)(=O)Nc2ccccc2)cc1)c1cc2ccccc2[nH]1
*A* ~25 µM

Numbers sourced from patent US20240417374A1.
